B1: Intersectin-2, residues 1129 to 1183; numbered along this chain, Q9NZM3 (parent)
chain: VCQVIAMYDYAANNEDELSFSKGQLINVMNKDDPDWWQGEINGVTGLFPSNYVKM

# Variants of: B1
# Assay Remarks: abundance fitness (aPCA) (normalised: wild type 0, dead -1); higher = more abundant; growth selection in yeast, the domain comes from the species named
# Condition Info: Homo sapiens
Each entry below carries its reported abundance fitness.
Experimental Readout: abundance fitness

INSERT INTO results (macromolecule_sequence, quantitative_result) VALUES
  ('VCQVIAMYDYAANNTDELSFSKGQLINVMNKDDPDWWQGEINGVTGLFPSNYVKM [E15T]', 0.033),
  ('VCQVIAMYDYAANAEDELSFSKGQLINVMNKDDPDWWQGEINGVTGLFPSNYVKM [N14A]', -0.038),
  ('VCQVVAMYDYAANNEDELSFSKGQLINVMNKDDPDWWQGEINGVTGLFPSNYVKM [I5V]', -0.015),
  ('VCQVIAMYDYAAVNEDELSFSKGQLINVMNKDDPDWWQGEINGVTGLFPSNYVKM [N13V]', -0.003),
  ('VCQVIAMYDYAANNEDELSFSKGQLINVMNKDDPDWWQGEINGVTGLFVSNYVKM [P49V]', -0.782),
  ('VCQVCAMYDYAANNEDELSFSKGQLINVMNKDDPDWWQGEINGVTGLFPSNYVKM [I5C]', -0.077),
  ('VCQVIAMYDYAANNEDELSFSKGQLINVMNKDDPDWWQQEINGVTGLFPSNYVKM [G39Q]', -0.992),
  ('VCQVIAMYDYAANNEDELSFSKGQLINVMNKDDPDWWQGEINGVTGLFPSNTVKM [Y52T]', -0.065),
  ('VCVVIAMYDYAANNEDELSFSKGQLINVMNKDDPDWWQGEINGVTGLFPSNYVKM [Q3V]', -0.042),
  ('VCQVIAMYDYAANNEDELSFSKGQMINVMNKDDPDWWQGEINGVTGLFPSNYVKM [L25M]', 0.031),
  ('VCQVIAMYPYAANNEDELSFSKGQLINVMNKDDPDWWQGEINGVTGLFPSNYVKM [D9P]', -0.098),
  ('VCQVIAMYDYAANNEDELSFSKGQLINVMNKDDPDWWQGEINGVTGLYPSNYVKM [F48Y]', -0.898),
  ('VCQVIAMYDYAANNEDELSFSKGQLINVMNKDDPDWWQGEIFGVTGLFPSNYVKM [N42F]', -0.126),
  ('VTQVIAMYDYAANNEDELSFSKGQLINVMNKDDPDWWQGEINGVTGLFPSNYVKM [C2T]', -0.126),
  ('VCQVIAMYDYAANNEDELSFSKGQLINVANKDDPDWWQGEINGVTGLFPSNYVKM [M29A]', -0.016),
  ('VCQVIAMYDYAANNEDELSFSKGQLINVMNKDDPHWWQGEINGVTGLFPSNYVKM [D35H]', -0.048),
  ('VCQVIAMYDYAANNEDELSFQKGQLINVMNKDDPDWWQGEINGVTGLFPSNYVKM [S21Q]', -0.137),
  ('VCQVIAMYDYAANNEDELSFSKGQLINVMNKDDDDWWQGEINGVTGLFPSNYVKM [P34D]', -0.01),
  ('VCQVFAMYDYAANNEDELSFSKGQLINVMNKDDPDWWQGEINGVTGLFPSNYVKM [I5F]', -0.022),
  ('VCQVIANYDYAANNEDELSFSKGQLINVMNKDDPDWWQGEINGVTGLFPSNYVKM [M7N]', -0.088),
  ('VCQVIAMYDYAANNEDFLSFSKGQLINVMNKDDPDWWQGEINGVTGLFPSNYVKM [E17F]', -0.11),
  ('VCQVIAMYDYAANNEDELSFSKGQLINVMNKDDPDWWSGEINGVTGLFPSNYVKM [Q38S]', -0.046);
